Entry source: the supplement of paper PMC7411054

- Test system: A549-GM130-SQSTM1
- experiment-notes: phenotypically active (imaging signature differs from DMSO and reproducible) at any of 0.3-9 uM (binary (1 = active, 0 = inactive)); higher = active
- run-parameters: treatment time: 24 h
Outcome codes: active, inactive

[[record]]
compound = "COc1ccc(CCc2nc3cc(-c4c(C)noc4C)ccc3n2C[C@H](C)N2CCOCC2)cc1Cl"
qualitative_label = "inactive"

[[record]]
compound = "Cc1cc(/N=N/c2ccc(S(=O)(=O)Nc3ccccn3)cc2)c(N)cc1O"
qualitative_label = "active"

[[record]]
compound = "CN1[C@@H]2CC[C@H]1C[C@@H](OC(c1ccccc1)c1ccccc1)C2"
qualitative_label = "active"

[[record]]
compound = "COc1cc(C#N)ccc1S(=O)(=O)Nc1ccc2c(c1)cc(C)c(=O)n2C"
qualitative_label = "inactive"

[[record]]
compound = "O=C(O)c1cccc(C(=O)O)n1"
qualitative_label = "inactive"

[[record]]
compound = "O=S(=O)(N[C@H](CO)C(C(F)(F)F)C(F)(F)F)c1ccc(Cl)s1"
qualitative_label = "inactive"

[[record]]
compound = "O=C1c2c(O)cccc2Cc2cccc(O)c21"
qualitative_label = "active"

[[record]]
compound = "C1CCN2C[C@@H]3C[C@@H](CN4CCCC[C@@H]34)[C@H]2C1 [Sparteine (-)]"
qualitative_label = "inactive"

[[record]]
compound = "COc1ccnc(CS(=O)c2nc3cc(OC(F)F)ccc3[nH]2)c1OC (stereo unspecified)"
qualitative_label = "inactive"

[[record]]
compound = "COc1nc(N)nc2c1ncn2[C@@H]1O[C@H](CO)[C@@H](O)[C@@H]1O"
qualitative_label = "inactive"

[[record]]
compound = "C[N+](C)(C)CCOC(N)=O [Carbamoylcholine chloride]"
qualitative_label = "inactive"

[[record]]
compound = "CC1(C)CCC(C)(C)c2cc(C3(c4ccc(C(=O)O)cc4)OCCO3)ccc21"
qualitative_label = "inactive"

[[record]]
compound = "COc1cc2c(cc1NS(=O)(=O)c1ccc(Br)cc1C)n(C)c(=O)n2C"
qualitative_label = "inactive"

[[record]]
compound = "O=c1c(O)c(-c2ccc(O)cc2)oc2cc(O)cc(O)c12"
qualitative_label = "active"

[[record]]
compound = "CNCCCC12CCC(c3ccccc31)c1ccccc12"
qualitative_label = "active"

[[record]]
compound = "CCc1c(C(=O)Nc2cc(S(=O)(=O)N(CC)CC)ccc2O)[nH]c(C)c1C(C)=O"
qualitative_label = "inactive"

[[record]]
compound = "CCc1cncnc1N1CCN(Cc2nc3cc(C(F)(F)F)ccc3[nH]2)CC1"
qualitative_label = "active"

[[record]]
compound = "O=c1c(-c2ccc(O)cc2)coc2cc(O[C@@H]3O[C@H](CO)[C@@H](O)[C@H](O)[C@H]3O)cc(O)c12"
qualitative_label = "inactive"

[[record]]
compound = "Cc1nnc(-c2ccc3occ(-c4ccc(S(C)=O)cc4)c3c2)o1 (stereo unspecified)"
qualitative_label = "active"

[[record]]
compound = "C[C@H]1C[C@@H]2[C@H]([C@@H](O)C[C@@]3(C)[C@H]2CC[C@]3(O)C(=O)CO)[C@@]2(C)C=CC(=O)C=C12"
qualitative_label = "active"

[[record]]
compound = "CCCCN1CCCCC1C(=O)Nc1c(C)cccc1C (stereo unspecified)"
qualitative_label = "inactive"


###

Each record here notes measured lowest phenotypically active concentration.
- Test system: WPMY1-TP53BP1-CLTA
- experiment-notes: lowest phenotypically active concentration; higher = less potent
- run-parameters: treatment time: 24 h
measured-quantity: lowest phenotypically active concentration (µM)

[[record]]
compound = "Cc1cc(C)cc(C(=O)NOCCCCCC(=O)NO)c1"
result_modifier = "≤"
test_result = 0.3

[[record]]
compound = "CN(C)C1CCN(C(=O)c2ccc(NC(=O)Nc3ccc(-c4nc(N5CCOCC5)nc(N5CCOCC5)n4)cc3)cc2)CC1"
result_modifier = "≤"
test_result = 0.3

[[record]]
compound = "O=C(CCCCCCC(=O)Nc1ccccc1)NO"
result_modifier = "="
test_result = 1

[[record]]
compound = "Oc1ccc(Nc2nc(-c3ccc(Cl)cc3)cs2)cc1"
result_modifier = "="
test_result = 9

[[record]]
compound = "C[C@@H]1COCCN1c1cc(C2(S(C)(=O)=O)CC2)nc(-c2cccc3[nH]ccc23)n1"
result_modifier = "="
test_result = 1

[[record]]
compound = "Cc1cc(Nc2ccc(NC(=O)c3ccc(Nc4ccnc5ccccc45)cc3)cc2)nc(N)n1"
result_modifier = "="
test_result = 3

[[record]]
compound = "CC(C)CCN1c2nc(Nc3cc(F)c(O)c(F)c3)ncc2N(C)C(=O)C1C (centres undefined)"
result_modifier = "≤"
test_result = 0.3

[[record]]
compound = "C[C@H]1Oc2cc(cnc2N)-c2c(nn(C)c2C#N)CN(C)C(=O)c2ccc(F)cc21"
result_modifier = "="
test_result = 9

[[record]]
compound = "CCC(=O)N1CCN(c2ccc(-n3c(=O)ccc4cnc5ccc(-c6cnc7ccccc7c6)cc5c43)cc2C(F)(F)F)CC1"
result_modifier = "≤"
test_result = 0.3

[[record]]
compound = "Nc1ncnc2c1c(-c1ccc(Oc3ccccc3)cc1)nn2C1CCCC1"
result_modifier = "="
test_result = 3

[[record]]
compound = "Nc1ncnc2c1c(-c1cnc3[nH]ccc3c1)nn2C1CCCC1"
result_modifier = "≤"
test_result = 0.3

[[record]]
compound = "CCN(CC)c1ccc(/C=N/NC(=O)c2ccncc2)c(O)c1"
result_modifier = "≤"
test_result = 0.3

[[record]]
compound = "CCN1CCN(C(c2cccnc2)c2cc(Cl)c3cccnc3c2O)CC1 (centres undefined)"
result_modifier = "="
test_result = 9

[[record]]
compound = "Cc1c(C(=O)N2CCOc3ccc(-c4ccc(N)nc4)cc3C2)ccc(S(C)(=O)=O)c1F"
result_modifier = "="
test_result = 3


###

Each record here notes measured phenotypically active.
- System: WPMY1-ACTB-RAB5A
- experiment-notes: phenotypically active (imaging signature differs from DMSO and reproducible) at any of 0.3-9 uM (binary (1 = active, 0 = inactive)); higher = active
- run-parameters: treatment time: 24 h
Where a name gives a salt, the structure may show the parent alone.
measured-quantity: phenotypically active

[[record]]
compound = "CCCc1cc2c(N3CCN(C4=NCC(C)(C)S4)CC3)ncnc2s1 [MI 2 dihydrochloride]"
measured_quantity = "phenotypically active"
test_result = "1 (active)"

[[record]]
compound = "Cc1cc(Nc2ncc3c(n2)N(C)C(=O)N(c2cc(NC(=O)c4cccc(C(F)(F)F)c4)ccc2C)C3)n(C)n1 [Pluripotin]"
measured_quantity = "phenotypically active"
test_result = "1 (active)"

[[record]]
compound = "CCN(CC)CCNc1ccc(CO)c2sc3ccccc3c(=O)c12 [hycanthone]"
measured_quantity = "phenotypically active"
test_result = "1 (active)"

[[record]]
compound = "C#C[C@]1(O)CC[C@H]2[C@@H]3CCc4cc(OC)ccc4[C@H]3CC[C@@]21C [mestranol]"
measured_quantity = "phenotypically active"
test_result = "0 (inactive)"

[[record]]
compound = "NCCCCNS(=O)(=O)c1ccc2c(Cl)cccc2c1 [W-13 hydrochloride]"
measured_quantity = "phenotypically active"
test_result = "1 (active)"

[[record]]
compound = "Cc1occc(=O)c1O [3-hydroxy-2-methyl-4-pyrone]"
measured_quantity = "phenotypically active"
test_result = "0 (inactive)"

[[record]]
compound = "N[C@@H](C(=O)O)c1ccc(C(=O)O)c(C(=O)O)c1"
measured_quantity = "phenotypically active"
test_result = "0 (inactive)"

[[record]]
compound = "COc1ccc(CCNCc2ccc(OCc3ccc(Cl)nc3)c(OC)c2)cc1OC [SBE 13 hydrochloride]"
measured_quantity = "phenotypically active"
test_result = "1 (active)"

[[record]]
compound = "CCc1c(C(=O)Nc2cc(S(=O)(=O)N(CC)CC)ccc2O)[nH]c(C)c1C(C)=O"
measured_quantity = "phenotypically active"
test_result = "0 (inactive)"

[[record]]
compound = "Clc1ccccc1C(c1ccccc1)(c1ccccc1)n1ccnc1 [Clotrimazole]"
measured_quantity = "phenotypically active"
test_result = "0 (inactive)"

[[record]]
compound = "CCOC(=O)C(C)(C)Oc1ccc(Cl)cc1 [Clofibrate]"
measured_quantity = "phenotypically active"
test_result = "0 (inactive)"

[[record]]
compound = "CCCNC(C)C(=O)Nc1c(C)csc1C(=O)OC (configuration not stated) [articaine]"
measured_quantity = "phenotypically active"
test_result = "0 (inactive)"

[[record]]
compound = "Cc1c(-c2cnccn2)ssc1=S [Oltipraz]"
measured_quantity = "phenotypically active"
test_result = "0 (inactive)"

[[record]]
compound = "C[N+]1(C)CCC(=C(c2ccccc2)c2ccccc2)CC1 [diphemanil]"
measured_quantity = "phenotypically active"
test_result = "0 (inactive)"

[[record]]
compound = "CC1(C)O[C@@H]2C[C@H]3[C@@H]4C[C@H](F)C5=CC(=O)CC[C@]5(C)[C@H]4[C@@H](O)C[C@]3(C)[C@]2(C(=O)CO)O1 [flurandrenolide]"
measured_quantity = "phenotypically active"
test_result = "0 (inactive)"

[[record]]
compound = "Cc1cc(C(=O)NNCc2ccccc2)no1 [isocarboxazid]"
measured_quantity = "phenotypically active"
test_result = "0 (inactive)"

[[record]]
compound = "COc1c2c(cc3oc(CO)cc(=O)c13)O[C@@H](C(C)(C)O)C2 [Cimifugin]"
measured_quantity = "phenotypically active"
test_result = "0 (inactive)"

